molecular target: PD-1/PD-L1 (Homo sapiens, UniProt Q9NZQ7); construct: TVMV protease site linker (C); assay: PD-1/PD-L1 Homogenous Time-Resolved Fluorescence (HTRF) binding assay; conditions: PD-L1-His 10 nM, PD-1-Ig 20 nM
Sequence (Q9NZQ7 18-239): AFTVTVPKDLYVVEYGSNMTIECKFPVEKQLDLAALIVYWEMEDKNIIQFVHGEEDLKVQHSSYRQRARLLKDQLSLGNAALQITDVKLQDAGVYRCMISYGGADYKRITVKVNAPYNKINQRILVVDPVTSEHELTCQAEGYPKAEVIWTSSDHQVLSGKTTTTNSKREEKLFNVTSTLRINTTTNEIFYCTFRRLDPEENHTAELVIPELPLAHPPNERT
reported_property: IC50 (nM)

Cc1c(COc2cc(OCc3cncc(C#N)c3)c(CNCc3c[nH]cn3)cc2Cl)cccc1-c1cccc(OCC2CCCN(CCC(F)(F)F)C2)c1Cl (stereo not drawn) ... 28
Cc1c(COc2cc(OCc3cncc(C#N)c3)c(CN(C)Cc3ncn[nH]3)cc2Cl)cccc1-c1cccc(OCCCN2CC[C@@H](O)C2)c1C ... 0.2
Cc1c(COc2cc(OCc3cncc(C#N)c3)c(CN3CCc4cn[nH]c4C3)cc2Cl)cccc1-c1cccc(OCC2CCCN(C)C2)c1Cl (stereo not drawn) ... 7.9
CC(=O)NC1CCN(CCCOc2cccc(-c3cccc(COc4cc(OCc5cncc(C#N)c5)c(CN5CCCCC5c5nnn[nH]5)cc4Cl)c3C)c2C)CC1 (stereo not drawn) ... 0.5

(P) Cc1onc(-c2ccccc2)c1CNCc1cc(Cl)c(OCc2cccc(-c3cccc(OCCCN4CC[C@@H](O)C4)c3C)c2C)cc1OCc1cncc(C#N)c1
(Q) CCN(CCO)CCCOc1cccc(-c2cccc(COc3cc(OCc4cncc(C#N)c4)c(CNCc4c[nH]cn4)cc3Cl)c2C)c1C
Incoming: Just tell me: smaller IC50 value, P or Q ? Refer to your chosen entry by its label in the reply.
Outgoing: Q
